Reference for the values: the supplement of paper PMC8728848

Target: Neu5Ac(a2-6)Gal(b1-4)GlcNAc(b1-2)Man(a1-3)[Man(a1-6)]Man(b1-4)GlcNAc(b1-4)GlcNAc
Assay: glycan array binding signal (z-score within array); higher = stronger binding
Settings: glycan notation: IUPAC condensed, linker removed
Shown is part of a subset that was picked to be rich in the strongest signals.
# glycan array binding signal (z-score) per entry
Measure name: glycan array binding signal (z-score)

1. RBMC2 (Vibrio cholerae) (protein) KISVRSGFAIDAIGASASTLVGGTGGNLNAAVNVKDIKAIDLTWGKYYWGGYHLLALDFRMSNGSVISMGSKNYAYSKQTERFTVPAGSRIKGIKAWTAGWLLDGVQFELA	12.3
2. LngA (Escherichia coli) (protein) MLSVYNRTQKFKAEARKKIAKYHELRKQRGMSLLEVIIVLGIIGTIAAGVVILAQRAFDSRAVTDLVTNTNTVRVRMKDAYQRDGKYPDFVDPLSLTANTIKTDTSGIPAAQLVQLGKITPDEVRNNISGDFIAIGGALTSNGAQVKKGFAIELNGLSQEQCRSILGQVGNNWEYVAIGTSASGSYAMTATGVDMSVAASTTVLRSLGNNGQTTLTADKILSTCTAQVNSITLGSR	-0.28
3. Epa9 (Candida glabrata), CAGL0A01386g (protein) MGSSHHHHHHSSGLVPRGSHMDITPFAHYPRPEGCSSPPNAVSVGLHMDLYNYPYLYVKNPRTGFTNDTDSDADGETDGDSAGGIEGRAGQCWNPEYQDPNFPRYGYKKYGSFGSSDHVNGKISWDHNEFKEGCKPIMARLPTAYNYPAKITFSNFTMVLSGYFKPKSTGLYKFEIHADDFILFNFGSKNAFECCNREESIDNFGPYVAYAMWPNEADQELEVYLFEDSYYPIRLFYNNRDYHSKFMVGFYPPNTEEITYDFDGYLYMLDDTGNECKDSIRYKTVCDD	-0.06
4. rPitB (Streptococcus pneumoniae), A0A0I7U739 (protein) MSEIEIINAKKIYHDVPVIENLNITIPKGSLFTLLGASGCGKTTLLRMIAGFNSIKDGEFYFDDTKINNMEPSKRNIGLVFQNYAIFPHLTVRDNVAFGLMQKKVPKEELIQQTNKYLELMQIAQYAD	0.505
